Attribution: patent US20260217797A1

- EXPERIMENTAL SYSTEM: SARS-CoV-2 RBD-mFc (SARS-CoV-2, UniProt P0DTC2 319-541)
- EXPERIMENT NOTES: Octet BLI, IgG, avid
Give measured Kd for each item. Keep answers brief.
Answers are plain numbers, in nM.

BINDER: A-4 (antibody, V domains shown) VH: EVQLVESGGGLIQPGGSLTLSCAASGFTVSSNYMNWVRQAPGKGLEWVSVIYSGGSTYYADSVKGRFTISRDNSKNTLYLQMNSLRAEDTAVYYCAREVYSYFDYWGQGTLVTVSS VL: DIQLTQSPSFLSASVGDRVTITCRASQGISSYLAWYQQKPGKAPKLLIYAASTLQSGVPSRFSGSGSGTEFTLTISRLQPEDLATYYCQQLNSYPPHTFGQGAKLEIK
Kd / nM: 0.663

Give Kd for all binders that follow.
1. A-18 (antibody, V domains shown) VH: EVQLLESGGGLVQPGGSLRLSCAASGFTFSRYWMHWVRQAPGKGLVWVSRINSDGSSTTYADSVKGRFTISRDNAKNTLYLQMNSLRAEDTAVYYCARELYYYDSRGAEEGEGWFDPWGQGTLVTVSS VL: QSVLTQPPSVSGAPGQRVTISCTGISSNIGAGYDVHWYQQLPGTAPKLLIYGNSNRPSGVPDRFSASKSGTSAPLAITGLQAEDEADYYCQSSDRSLSGSVFGTGTKLTVL
2. A-3 (antibody, V domains shown) VH: EVQLLESGPGLVKPSETLSLTCTVSGGSINSRSYYWGWIRQPPGKGLEWIGSIYYSGSTYYNPSLKSRVTISVDTSKNQFSLKLSSVIAADTAVYFCARLEQWELPGGWFDPWGQGTLVTVSS VL: NFMLTQPHSVSESPGKTVTISCTRSSGSIASNYVQWYQQRPGSAPTTVIYEDNQRPSGVPDRFSGSIDISSNSASLTISGLKTEDEADYSCQSSDSSNVVFGGGTKLTVL
3. A-2 (antibody, V domains shown) VH: EVQLVESGGGLIQPGGSLRLSCAASGFTVSSNYMSWVRQAPGKGLEWVSIIYSGGSTYYADSVKGRFTISRDNSKNTLYLQMNSLRAEDTAVYYCARAPSGEYGDPIYYWGQGTLVTVSS VL: QSVLTQPPSASASLGASVKLTCTLSSGHSTYTIAWHQQQPEKGPRYLMKLNSDGSHSKGDGIPDRFSGSSSGAERYLTISSLQSEDEADYYCQTWGTGNHWVFGGGTKLTVL

-- reply
1: 0.0757; 2: 0.141; 3: 0.125

Hello, I would appreciate it if you could give Kd for each entry below.
1. A-6 (antibody, V domains shown) VH: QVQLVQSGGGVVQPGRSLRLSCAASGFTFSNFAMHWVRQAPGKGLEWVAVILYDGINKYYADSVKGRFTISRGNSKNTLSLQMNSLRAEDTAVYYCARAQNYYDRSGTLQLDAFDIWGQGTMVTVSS VL: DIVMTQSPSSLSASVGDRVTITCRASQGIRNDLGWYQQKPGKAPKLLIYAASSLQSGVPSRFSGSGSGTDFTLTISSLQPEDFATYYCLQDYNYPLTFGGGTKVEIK
2. A-1 (antibody, V domains shown) VH: EVQLVESGGGVVQPGGSLRLSCAASGFAFSTYWMHWVRQAPGKGLVWVSRINGDGSGTNYADSVKGRFTISRDNAKSTLYLQMNSLRTEDTAVYYCTRTAGRGAYDFGRFDPWGQGTLVTVSS VL: DIVLTQTPLSLPVTPGEPASISCRSSQSLLHSNGYNYLDWYLQKAGQSPQLLVFLGSNRASGVPDRFSGSASGTDFTLKISRVEAEDVGVYYCMQALQIPITFGQGTRLEIK
3. A-13 (antibody, V domains shown) VH: QVQLVQSGAEVKKPGASVKVSCKASGYTFTDYYMHWVRQAPGQGLEWMGWINPNSGGTNSAQKFQGRVTMTRDTSINTAYMELSRLRSDDTAVYFCARDSHLAMVRGDFEYWGQGTLVTVSS VL: QSVLTQPASVSGSPGQSITISCTGTSSDVESYNVVSWYQQHPGKAPKLMIYEVSKRPSGVSHRFSGSKSGNTASLTISGLQAEDESDYYCCSYAGNSTWVFGGGTKLTVL
4. A-16 (antibody, V domains shown) VH: QVQLVESGGGLVQPGRSLRLSCAASGFTFDDYAMHWVRQAPGKGLEWVSGISWNSGTIGYADSVKGRFIISRDNAKNSLYLQMNSLRGEDMALYYCGKDRKREDPSLGGMDVWGQGTTVTVSS VL: SYELTQPPSVSVAPGQTARITCGGNNIGSKSVHWYQQKPGQAPVLVVYDDTDRPSGIPERFSGSNSGNTATLTISRVEAGDEADYYCQVWDSSSDHYVFGTGTKLTVL
5. A-11 (antibody, V domains shown) VH: EVQLVESGAEVKKPGSSVMVSCKASGGTFSRYAISWVRQAPGQGLEWMGGIIPVFGIVHYAQKFQGRVTITADKSTSTAYMELSSLRSEDTAAYYCARDRQQQPSPYYYHGMDVWGQGTTVTVSS VL: DIRLTQSPSSLSASVGDRVTITCQASQDISNYLNWYQQKPGKAPKLLIYDASNLETGVPTRFSGSGSGTDFTFTISSLQPEDIATYYCQQYDNLPLFGGGTKVEIK
6. A-15 (antibody, V domains shown) VH: QVQLVQSGAEVKKPGASVKVSCKASGYTSSSYYMHWVRQAPGQGPEWMGIINPGGTSTSYAQKFQGRVTMTRDTSTSTVYMELSSLRSEDTAVYYCAIGYCSTTSCRWGDAFDIWGQGTMVTVSS VL: DIQVTQSPSSLSASVGDRVTITCRASQSISSYLNWYQQKPEKAPNLLIYAASSLQSGVPSRFSGSGSGTDFTLTISSLQPEDFATYYCQQSSTTPPTFGQGTKVEIK

-- reply
1: 0.146; 2: 0.089; 3: 0.0959; 4: 0.081; 5: 0.173; 6: 0.212

-- ask Item A-12 (antibody, V domains shown) VH: EVQLLESGGGLVQPGGSLRLSCAVSGLTVSSNYMSWVRQAPGKGLEWVSLIYSGGSTYYADSVKGRFTISRDNSKNTLYLQMNSLRAEDTAVYYCARGELGIPYGMDVWGQGTTVTVSS VL: QSVLTQPPSVSAAPGQKVTISCSGGSSNVGDNFVSWYQQLPGTAPKLLIYDNNRRPSGIPDRFSGSKSGTSATLGITGLQTGDEADYYCGTWDSSLSAGVFGGGTKVTVL has what recorded Kd?
-- reply 0.151
